Experiment: Volume of distribution at steady state in cynomolgus monkey at 1 mg/kg, iv measured over 24 hrs by LC/MS/MS analysis
Format: ADME, organism-based, Macaca fascicularis
Settings: in vivo, read-out: Vdss
READOUT_LABEL: Vd
# include the unit after the value

Lookup: For the compound shown here, N#Cc1c(N)nc(N)nc1N[C@H](c1nc2c(F)ccc(Cl)c2c(=O)n1-c1cccnc1)C1CC1 , give the reported Vd.
Found: 1.21 L/kg

----------
Molecular target: Phosphatidylinositol 4,5-bisphosphate 3-kinase catalytic subunit beta isoform (Homo sapiens)
Sequence (P42338 whole entry, canonical isoform): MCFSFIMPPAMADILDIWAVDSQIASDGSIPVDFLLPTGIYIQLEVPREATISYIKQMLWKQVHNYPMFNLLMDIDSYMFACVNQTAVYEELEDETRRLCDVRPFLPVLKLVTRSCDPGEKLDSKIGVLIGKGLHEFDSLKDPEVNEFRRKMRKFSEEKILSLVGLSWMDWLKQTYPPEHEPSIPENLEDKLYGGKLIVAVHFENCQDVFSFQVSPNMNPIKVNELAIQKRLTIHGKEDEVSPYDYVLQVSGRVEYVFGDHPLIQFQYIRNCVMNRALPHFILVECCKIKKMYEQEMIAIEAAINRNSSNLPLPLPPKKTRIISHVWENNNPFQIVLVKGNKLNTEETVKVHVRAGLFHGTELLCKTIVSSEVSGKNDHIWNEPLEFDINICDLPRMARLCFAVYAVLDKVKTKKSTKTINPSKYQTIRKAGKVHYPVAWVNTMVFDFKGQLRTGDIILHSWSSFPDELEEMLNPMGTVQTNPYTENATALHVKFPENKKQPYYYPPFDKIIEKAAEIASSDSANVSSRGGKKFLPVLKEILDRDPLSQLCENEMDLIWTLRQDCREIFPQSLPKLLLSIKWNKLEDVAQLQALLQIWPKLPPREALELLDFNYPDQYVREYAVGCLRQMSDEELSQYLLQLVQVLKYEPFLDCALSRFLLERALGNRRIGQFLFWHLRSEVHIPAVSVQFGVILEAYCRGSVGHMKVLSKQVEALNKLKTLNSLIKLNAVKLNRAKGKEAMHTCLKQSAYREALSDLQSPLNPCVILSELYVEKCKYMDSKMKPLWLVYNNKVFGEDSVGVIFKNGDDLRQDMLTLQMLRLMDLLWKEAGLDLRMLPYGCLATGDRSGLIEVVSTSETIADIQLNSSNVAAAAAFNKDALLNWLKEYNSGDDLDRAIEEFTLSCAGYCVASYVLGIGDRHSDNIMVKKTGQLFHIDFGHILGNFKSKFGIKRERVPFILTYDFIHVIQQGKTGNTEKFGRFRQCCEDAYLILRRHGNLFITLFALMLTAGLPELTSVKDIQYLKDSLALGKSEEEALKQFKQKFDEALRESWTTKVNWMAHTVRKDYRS
Test: Inhibition of PI3K p110beta in human PC-3 cells assessed as reduction in AKT phosphorylation at S473 residue measured after 2 hrs by TR-FRET analysis
READOUT_LABEL: pEC50
Here pEC50 is given on a logarithmic scale as minus log10 of the concentration in mol/L.

Lookup: For the compound shown here, N#Cc1c(N)nc(N)nc1N[C@H](c1nc2c(F)ccc(Cl)c2c(=O)n1-c1cccnc1)C1CC1 [GS-9901] , give the reported pEC50.
Found: 7.38
